ASSAY PROCEDURE: Estimation of concentration per dose, GIT and plasma concentrations (560 mg KF extract dose)
Design: species or system human
SETUP CONDITIONS: 560 mg KF extract, single dose, from % yield
Procedure: All assumptions to predict the HDI potential of KF methanolic extract and its constituents were according to previously published report ([Awortwe et al., 2014]). The % yield was calculated from the amounts extracted from the KF roots ([Ali and Khan, 2011]). […]
Would you please tag the item satisfied when its Estimated concentration per dose is 3 mg/mL or above, and not satisfied when it is below?

COMPOUND: CCCC/C=C\CCCCCCCCCc1cc(O)cc(OC)c1
DISCRETE LABEL: satisfied
//
COMPOUND: CCCC/C=C\CCCCCCCCCC1=C(c2c(O)cc(O)cc2CCCCCCCCC/C=C\CCCC)C(=O)C=C(OC)C1=O
DISCRETE LABEL: satisfied
//
COMPOUND: C[C@@H]1O[C@@H](O[C@H]2[C@H](O[C@H]3CO[C@@H](O[C@H]4CC[C@]5(C)[C@H]6CC[C@]78OC[C@@]9(CC[C@](C)(C=O)C[C@H]97)C(=O)C[C@@]8(C)[C@]6(C)CC[C@H]5C4(C)C)[C@H](O)[C@H]3O)O[C@H](CO)[C@@H](O)[C@@H]2O)[C@H](O)[C@H](O)[C@H]1O [Ardisimamilloside H]
DISCRETE LABEL: not satisfied
//
COMPOUND: CC1(C)[C@@H](O[C@@H]2OC[C@H](O[C@@H]3O[C@H](CO)[C@@H](O)[C@H](O)[C@H]3O[C@@H]3OC[C@@H](O)[C@H](O)[C@H]3O)[C@H](O)[C@H]2O)CC[C@]2(C)[C@H]3CC[C@]45OC[C@@]6(CC[C@](C)(C=O)C[C@H]64)[C@H](O)C[C@@]5(C)[C@]3(C)CC[C@@H]12
DISCRETE LABEL: not satisfied
//
COMPOUND: CCCC/C=C\CCCCCCCCCc1cc(O)cc(O)c1 [5-[10(Z)-pentadecenyl]resorcinol]
DISCRETE LABEL: satisfied
//
COMPOUND: CCCC/C=C\CCCCCCCCCc1cc(O)cc2oc3cc(OC)c(O)c(CCCCCCCCC/C=C\CCCC)c3c12
DISCRETE LABEL: not satisfied
